- MEASUREMENT TARGET: TYK2-JH2 (aa 575-869, in-house) protein (Homo sapiens)
- Construct: TYK2-JH2 (aa 575-869, in-house) protein; made in house
- TEST SUMMARY: TYK2-JH2 biochemical assay (HTRF, blocking of TYK2-JH2 protein with its probe)
- Type: binding
- PARTICULARS: TYK2-JH2 vs JAK1-JH2 biochemical IC50
RECORDED METRIC: Biochemical assay Selectivity fold (TYK2/JAK1) (fold)

{"COMPOUND": "CNC(=O)c1nnc(NC(=O)C2CC2)cc1Nc1nc2ccc(N3CC(S(C)(=O)=O)C3)cn2n1", "MEASURE UNIT": "fold", "READOUT VALUE": 13}
{"COMPOUND": "CNC(=O)c1nnc(NC(=O)C2CC2)cc1Nc1nc2ccc(N3CC(OC)C3)cn2n1 [Example E2]", "MEASURE UNIT": "fold", "READOUT VALUE": 26}
{"COMPOUND": "CNC(=O)c1nnc(NC(=O)C2CC2)cc1Nc1nc2ccc(N3CC(C(=O)N4CCSC4)C3)cn2n1", "MEASURE UNIT": "fold", "READOUT VALUE": 14}
{"COMPOUND": "CNC(=O)c1nnc(NC(=O)C2CC2)cc1Nc1nc2ccccn2n1", "MEASURE UNIT": "fold", "READOUT VALUE": 8}
{"COMPOUND": "CNC(=O)c1nnc(NC(=O)C2CC2)cc1Nc1nc2ccc(N3C(=O)CC3c3ccccc3)cn2n1 (stereo not shown)", "MEASURE UNIT": "fold", "READOUT VALUE": 8}
{"COMPOUND": "CNC(=O)c1nnc(NC(=O)C2CC2)cc1Nc1nc2ccc(C3CN(C(=O)c4ncn(C)n4)C3)cn2n1", "MEASURE UNIT": "fold", "READOUT VALUE": 22}
{"COMPOUND": "CNC(=O)c1nnc(NC(=O)C2CC2)cc1Nc1nc2ccc(OC3CN(C4CCOC4)C3)cn2n1 (stereo not shown) [Example D1]", "MEASURE UNIT": "fold", "READOUT VALUE": 12}
{"COMPOUND": "CNC(=O)c1nnc(NC(=O)C2CC2)cc1Nc1nc2ccc(N3CC(CC(F)F)C3)cn2n1", "MEASURE UNIT": "fold", "READOUT VALUE": 34}
{"COMPOUND": "CNC(=O)c1nnc(NC(=O)C2CC2)cc1Nc1nc2ccc(OC3CN(C(=O)CC#N)C3)cn2n1", "MEASURE UNIT": "fold", "READOUT VALUE": 11}
{"COMPOUND": "CNC(=O)c1nnc(NC(=O)C2CC2)cc1Nc1nc2ccccc2n1C", "MEASURE UNIT": "fold", "READOUT VALUE": 5}
{"COMPOUND": "CNC(=O)c1nnc(NC(=O)C2CC2)cc1Nc1nc2ccc(C3CN(C)C3)cn2n1", "MEASURE UNIT": "fold", "READOUT VALUE": 10}
{"COMPOUND": "CCN(CC)C1CN(c2ccc3nc(Nc4cc(NC(=O)C5CC5)nnc4C(=O)NC)nn3c2)C1", "MEASURE UNIT": "fold", "READOUT VALUE": 11}
{"COMPOUND": "CNC(=O)c1nnc(NC(=O)C2CC2)cc1Nc1nc2ccc(OC3CN(C(=O)OC(C)(C)C)C3)cn2n1", "MEASURE UNIT": "fold", "READOUT VALUE": 13}
{"COMPOUND": "CNC(=O)c1nnc(NC(=O)C2CC2)cc1Nc1nc2ccc(N3CC(COC)C3)cn2n1", "MEASURE UNIT": "fold", "READOUT VALUE": 29}
{"COMPOUND": "CNC(=O)c1nnc(NC(=O)C2CC2)cc1Nc1nc2ccc(OC3CN(S(C)(=O)=O)C3)cn2n1", "MEASURE UNIT": "fold", "READOUT VALUE": 15}
{"COMPOUND": "CNC(=O)c1nnc(NC(=O)C2CC2)cc1Nc1nc2ccc(N3CC(F)(CO)C3)cn2n1", "MEASURE UNIT": "fold", "READOUT VALUE": 21}

----------
Parameter IC50: see the listing below.
- MEASUREMENT TARGET: TYK2-JH2 (aa 575-869, in-house) protein (Homo sapiens, UniProt P29597)
- Construct: TYK2-JH2 (aa 575-869, in-house) protein
- Sequence (P29597 575-869): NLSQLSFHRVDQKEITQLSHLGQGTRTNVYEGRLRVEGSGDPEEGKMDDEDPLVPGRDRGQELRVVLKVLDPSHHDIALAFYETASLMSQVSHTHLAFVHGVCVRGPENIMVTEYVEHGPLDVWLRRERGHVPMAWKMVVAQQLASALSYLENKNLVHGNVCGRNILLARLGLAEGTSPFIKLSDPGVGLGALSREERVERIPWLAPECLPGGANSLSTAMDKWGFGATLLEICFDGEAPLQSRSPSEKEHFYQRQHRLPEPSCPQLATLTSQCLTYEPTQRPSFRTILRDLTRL
- TEST SUMMARY: TYK2-JH2 biochemical assay (HTRF, blocking of TYK2-JH2 protein with its probe)
- PARTICULARS: HTRF, 0.2 nM recombinant TYK2-JH2, Probe 1
RECORDED METRIC: IC50 (nM)

{"MOLECULE": "CNC(=O)c1nnc(NC(=O)C2CC2)cc1Nc1nc2ccc(OC3CN(C(=O)CC#N)C3)cn2n1", "RECORDED METRIC": "IC50", "MEASURE UNIT": "nM", "READOUT VALUE": 0.143}
{"MOLECULE": "CNC(=O)c1nnc(NC(=O)C2CC2)cc1Nc1nc2ccc(OC3CN(C(C)=O)C3)cn2n1", "RECORDED METRIC": "IC50", "MEASURE UNIT": "nM", "READOUT VALUE": 0.08}
{"MOLECULE": "CNC(=O)c1nnc(NC(=O)C2CC2)cc1Nc1nc2ccc(OC3CN(S(C)(=O)=O)C3)cn2n1", "RECORDED METRIC": "IC50", "MEASURE UNIT": "nM", "READOUT VALUE": 0.08}
{"MOLECULE": "CNC(=O)c1nnc(NC(=O)C2CC2)cc1Nc1nc2ccccn2n1", "RECORDED METRIC": "IC50", "MEASURE UNIT": "nM", "READOUT VALUE": 0.16}
{"MOLECULE": "CNC(=O)c1nnc(NC(=O)C2CC2)cc1Nc1nc2ccc(N3CC(S(C)(=O)=O)C3)cn2n1", "RECORDED METRIC": "IC50", "MEASURE UNIT": "nM", "READOUT VALUE": 0.12}
{"MOLECULE": "CNC(=O)c1nnc(NC(=O)C2CC2)cc1Nc1nc2ccc(N3CCC3)cn2n1 [Example E1]", "RECORDED METRIC": "IC50", "MEASURE UNIT": "nM", "READOUT VALUE": 0.047}
{"MOLECULE": "CNC(=O)c1nnc(NC(=O)C2CC2)cc1Nc1nc2ccc(N3CCC(N4CC(F)(F)C4)CC3)cn2n1", "RECORDED METRIC": "IC50", "MEASURE UNIT": "nM", "READOUT VALUE": 0.024}
{"MOLECULE": "[2H]C([2H])([2H])NC(=O)c1nnc(NC(=O)C2CC2)cc1Nc1nc2ccc(N3CCC3)cn2n1", "RECORDED METRIC": "IC50", "MEASURE UNIT": "nM", "READOUT VALUE": 0.038}

----------
Parameter pIC50: see the listing below.
- Test system: JAK2, TYK2/p-STAT4 (Tyr693) activated by IL-12 in NK-92 cell line
- TEST SUMMARY: IL-12-JAK2, TYK2/p-STAT4 (Tyr693) inhibition cellular assay
- Type: cell-based
- PARTICULARS: NK92, 0.5 h; NK-92 cells, IL-12 40 ng/ml, 30 min; read-out: Cellular assay pSTAT4/IL-12 IC50
pIC50: −log10 of the molar value.
RECORDED METRIC: pIC50

{"MOLECULE": "CNC(=O)c1nnc(NC(=O)C2CC2)cc1Nc1nc2ccc(N3CC(C(=O)N4CCSC4)C3)cn2n1", "RECORDED METRIC": "pIC50", "BOUND TYPE": "=", "READOUT VALUE": 6.80}
{"MOLECULE": "CNC(=O)c1nnc(NC(=O)C2CC2)cc1Nc1nc2c(C)cc(N3CCC3)cn2n1", "RECORDED METRIC": "pIC50", "BOUND TYPE": "=", "READOUT VALUE": 7.68}
{"MOLECULE": "CNC(=O)c1nnc(NC(=O)C2CC2)cc1Nc1nc2ccc(P(C)(C)=O)cn2n1", "RECORDED METRIC": "pIC50", "BOUND TYPE": "<", "READOUT VALUE": 5.00}
{"MOLECULE": "CNC(=O)c1nnc(NC(=O)C2CC2)cc1Nc1nc2ccc(N3CCC(C4CN(C)C4)CC3)cn2n1 [Example P1]", "RECORDED METRIC": "pIC50", "BOUND TYPE": "=", "READOUT VALUE": 7.54}

----------
- MEASUREMENT TARGET: JAK1-JH2 protein (aa 561-860, in-house) (Homo sapiens, UniProt P23458)
- Construct: JAK1-JH2 protein (aa 561-860, in-house)
- Sequence (P23458 561-860): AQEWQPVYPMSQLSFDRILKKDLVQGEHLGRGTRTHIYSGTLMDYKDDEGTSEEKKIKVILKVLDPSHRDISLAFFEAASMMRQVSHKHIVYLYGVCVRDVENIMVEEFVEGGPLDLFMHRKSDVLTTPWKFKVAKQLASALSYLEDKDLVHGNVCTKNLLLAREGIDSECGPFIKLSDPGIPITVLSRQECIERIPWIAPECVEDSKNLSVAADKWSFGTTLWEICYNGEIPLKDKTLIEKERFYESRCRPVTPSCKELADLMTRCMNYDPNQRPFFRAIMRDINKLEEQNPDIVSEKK
- TEST SUMMARY: JAK1-JH2 biochemical assay (HTRF, blocking of JAK1-JH2 protein with its probe)
- PARTICULARS: 1.17 nM recombinant JAK1-JH2, Probe 2
Label yes when IC50 < 2 nM; otherwise no.

{"MOLECULE": "CNC(=O)c1nnc(NC(=O)C2CC2)cc1Nc1nc2ccc(N3CC(COC)C3)cn2n1", "CLASS": "yes"}
{"MOLECULE": "CNC(=O)c1nnc(NC(=O)C2CC2)cc1Nc1nc2ccc(N3CC(N4CCCCC4)C3)cn2n1", "CLASS": "yes"}
{"MOLECULE": "CNC(=O)c1nnc(NC(=O)C2CC2)cc1Nc1nc2ccc(OC3CN(S(C)(=O)=O)C3)cn2n1", "CLASS": "yes"}
{"MOLECULE": "CNC(=O)c1nnc(NC(=O)C2CC2)cc1Nc1nc2ccc(N3CCC(N4CC(F)(F)C4)CC3)cn2n1", "CLASS": "yes"}
{"MOLECULE": "CNC(=O)c1nnc(NC(=O)C2CC2)cc1Nc1nc2ccccn2n1", "CLASS": "yes"}
{"MOLECULE": "CNC(=O)c1nnc(NC(=O)C2CC2)cc1Nc1nc2ccc(OC3CN(C(C)=O)C3)cn2n1", "CLASS": "yes"}
{"MOLECULE": "CNC(=O)c1nnc(NC(=O)C2CC2)cc1Nc1nc2ccc(N3CCC3)cn2n1 [Example E1]", "CLASS": "yes"}
{"MOLECULE": "CNC(=O)c1nnc(NC(=O)C2CC2)cc1Nc1nc2ccc(N3CC(C(=O)N4CCSC4)C3)cn2n1", "CLASS": "no"}
{"MOLECULE": "CNC(=O)c1nnc(NC(=O)C2CC2)cc1Nc1nc2ccc(OC3CN(C(=O)CC#N)C3)cn2n1", "CLASS": "yes"}
{"MOLECULE": "CNC(=O)c1nnc(NC(=O)C2CC2)cc1Nc1nc2ccc(N3CCCC(N4CC(F)(F)C4)C3)cn2n1 (centres unmarked)", "CLASS": "no"}
{"MOLECULE": "CNC(=O)c1nnc(NC(=O)C2CC2)cc1Nc1nc2ccc(N3CCC(N4CC(N(C)C)C4)CC3)cn2n1", "CLASS": "no"}
{"MOLECULE": "CNC(=O)c1nnc(NC(=O)C2CC2)cc1Nc1nc2ccc(N3C(=O)CC3c3ccccc3)cn2n1 (centres unmarked)", "CLASS": "no"}
{"MOLECULE": "CNC(=O)c1nnc(NC(=O)C2CC2)cc1Nc1nc2ccc(N3CC(S(C)(=O)=O)C3)cn2n1", "CLASS": "yes"}
{"MOLECULE": "CNC(=O)c1nnc(NC(=O)C2CC2)cc1Nc1nc2ccc(N3CCC(C4CN(C)C4)CC3)cn2n1 [Example P1]", "CLASS": "yes"}
{"MOLECULE": "CNC(=O)c1nnc(NC(=O)C2CC2)cc1Nc1nc2c(F)cc(N3CCC3)cn2n1", "CLASS": "yes"}
{"MOLECULE": "CNC(=O)c1nnc(NC(=O)C2CC2)cc1Nc1nc2ccc(N3CC(Oc4ccc(F)cc4F)C3)cn2n1", "CLASS": "no"}
{"MOLECULE": "CNC(=O)c1nnc(NC(=O)C2CC2)cc1Nc1nc2ccccc2o1", "CLASS": "no"}
{"MOLECULE": "[2H]C([2H])([2H])NC(=O)c1nnc(NC(=O)C2CC2)cc1Nc1nc2ccc(N3CCC3)cn2n1", "CLASS": "yes"}
{"MOLECULE": "CNC(=O)c1nnc(NC(=O)C2CC2)cc1Nc1nc2ccc(N3CC(N(C)C)C3)cn2n1", "CLASS": "yes"}
{"MOLECULE": "CNC(=O)c1nnc(NC(=O)C2CC2)cc1Nc1nc2ccc(N3CC(O)C3)cn2n1", "CLASS": "yes"}
{"MOLECULE": "CNC(=O)c1nnc(NC(=O)C2CC2)cc1Nc1nc2ccc(C(=O)N3CCC3)cn2n1", "CLASS": "yes"}
{"MOLECULE": "CNC(=O)c1nnc(NC(=O)C2CC2)cc1Nc1nc2c(C)cc(N3CCC3)cn2n1", "CLASS": "yes"}
{"MOLECULE": "CNC(=O)c1nnc(NC(=O)C2CC2)cc1Nc1nc2ccc(C3CN(C(C)=O)C3)cn2n1", "CLASS": "no"}
